# Test system: KM20L2 colon
# test.protocol: NCI tumour cell line growth inhibition, 48 h
TGI values, listed per item
attribute.measured: TGI (µM)

1. CN(C)CCNC(=O)c1cccc2cc([N+](=O)[O-])ccc12
0.722
2. Clc1ccccc1C1N2CCCCC2[C@@H]2c3[nH]c4ccccc4c3CCN12 (stereo partly specified)
34.1
3. O=C(N[C@@H]1C=CCC[C@@H]1c1ccccc1)OCc1ccccc1
40.6
4. COc1ccc2nc3ccccc3c(NCCCCCN(CCCl)CCCl)c2c1
1.02
5. O=Nc1ccc(O)c2ncccc12
89.9

###

Reported TGI values follow for various compounds
# System: OVCAR-8 ovarian
# test.protocol: NCI tumour cell line growth inhibition, 48 h
attribute.measured: TGI (µM)

1) CCOc1ccccc1NC(=O)C(=O)C(C(=O)c1ccc2ccccc2c1)C1OC(=O)c2ccccc21 (stereo not given)
38.8
2) Cc1cc(O)c(C2=NN(c3ccc(S(N)(=O)=O)cc3)C(c3ccccc3O)C2)cc1Cl (stereo not given)
8.54
3) C/C(=N/NC(=S)N(C)CCc1ccccn1)c1cnccn1
0.385
4) CCCCCCCCCCCCOC1C(CNCC2OC3OC(C)(C)OC3C2NC(=O)Nc2ccc(C(F)(F)F)cc2)OC2OC(C)(C)OC21 (stereo not given)
18.1
